Collected fold affinity vs original values appear next to each entry.
Molecular target: binding partner of C5A (XPA23)
Experiment: Biacore

- binder: "C5A (XPA23) VH S54E (antibody, V domains shown) VH: EVQLLESGGGLVQPGGSLRLSCAASGFTFSKYFMFWVRQAPGKGLEWVSVISPEGGMTRYADSVKGRFTISRDNSKNTLYLQMNSLRAEDTAVYYCARVGYGGNSDYWGQGTLVTVSS VL: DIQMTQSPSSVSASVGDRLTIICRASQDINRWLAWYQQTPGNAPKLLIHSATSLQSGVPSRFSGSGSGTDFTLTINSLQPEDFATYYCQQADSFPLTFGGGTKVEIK"
  unit: "fold"
  fold affinity vs original: 0.03
- binder: "C5A (XPA23) VH G100H (antibody, V domains shown) VH: EVQLLESGGGLVQPGGSLRLSCAASGFTFSKYFMFWVRQAPGKGLEWVSVISPSGGMTRYADSVKGRFTISRDNSKNTLYLQMNSLRAEDTAVYYCARVHYGGNSDYWGQGTLVTVSS VL: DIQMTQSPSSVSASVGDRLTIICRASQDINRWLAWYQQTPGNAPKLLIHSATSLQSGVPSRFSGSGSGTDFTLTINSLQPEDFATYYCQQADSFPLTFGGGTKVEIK"
  unit: "fold"
  fold affinity vs original: 0.06
- binder: "C5A (XPA23) VH D106N (antibody, V domains shown) VH: EVQLLESGGGLVQPGGSLRLSCAASGFTFSKYFMFWVRQAPGKGLEWVSVISPSGGMTRYADSVKGRFTISRDNSKNTLYLQMNSLRAEDTAVYYCARVGYGGNSNYWGQGTLVTVSS VL: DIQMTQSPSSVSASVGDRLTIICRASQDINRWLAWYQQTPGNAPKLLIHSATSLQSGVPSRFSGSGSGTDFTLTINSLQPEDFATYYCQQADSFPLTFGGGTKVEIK"
  unit: "fold"
  fold affinity vs original: 0.07
- binder: "C5A (XPA23) VH I51D (antibody, V domains shown) VH: EVQLLESGGGLVQPGGSLRLSCAASGFTFSKYFMFWVRQAPGKGLEWVSVDSPSGGMTRYADSVKGRFTISRDNSKNTLYLQMNSLRAEDTAVYYCARVGYGGNSDYWGQGTLVTVSS VL: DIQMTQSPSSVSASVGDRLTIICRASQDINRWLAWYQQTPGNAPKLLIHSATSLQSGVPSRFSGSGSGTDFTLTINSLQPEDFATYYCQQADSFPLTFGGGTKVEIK"
  unit: "fold"
  fold affinity vs original: 0.07
- binder: "C5A (XPA23) VH R59N (antibody, V domains shown) VH: EVQLLESGGGLVQPGGSLRLSCAASGFTFSKYFMFWVRQAPGKGLEWVSVISPSGGMTNYADSVKGRFTISRDNSKNTLYLQMNSLRAEDTAVYYCARVGYGGNSDYWGQGTLVTVSS VL: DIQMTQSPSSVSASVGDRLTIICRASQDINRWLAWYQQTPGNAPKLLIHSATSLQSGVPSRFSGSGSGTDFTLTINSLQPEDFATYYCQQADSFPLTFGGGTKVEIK"
  unit: "fold"
  fold affinity vs original: 0.86
- binder: "C5A (XPA23) VH G56K (antibody, V domains shown) VH: EVQLLESGGGLVQPGGSLRLSCAASGFTFSKYFMFWVRQAPGKGLEWVSVISPSGKMTRYADSVKGRFTISRDNSKNTLYLQMNSLRAEDTAVYYCARVGYGGNSDYWGQGTLVTVSS VL: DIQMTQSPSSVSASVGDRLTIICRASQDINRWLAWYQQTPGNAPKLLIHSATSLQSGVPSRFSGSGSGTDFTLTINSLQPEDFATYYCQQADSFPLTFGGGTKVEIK"
  unit: "fold"
  fold affinity vs original: 2.05
- binder: "C5A (XPA23) VH T58D (antibody, V domains shown) VH: EVQLLESGGGLVQPGGSLRLSCAASGFTFSKYFMFWVRQAPGKGLEWVSVISPSGGMDRYADSVKGRFTISRDNSKNTLYLQMNSLRAEDTAVYYCARVGYGGNSDYWGQGTLVTVSS VL: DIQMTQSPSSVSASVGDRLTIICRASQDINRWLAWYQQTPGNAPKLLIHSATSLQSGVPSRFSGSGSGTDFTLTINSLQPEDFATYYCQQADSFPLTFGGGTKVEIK"
  unit: "fold"
  fold affinity vs original: 0.12
- binder: "C5A (XPA23) VH Y101N (antibody, V domains shown) VH: EVQLLESGGGLVQPGGSLRLSCAASGFTFSKYFMFWVRQAPGKGLEWVSVISPSGGMTRYADSVKGRFTISRDNSKNTLYLQMNSLRAEDTAVYYCARVGNGGNSDYWGQGTLVTVSS VL: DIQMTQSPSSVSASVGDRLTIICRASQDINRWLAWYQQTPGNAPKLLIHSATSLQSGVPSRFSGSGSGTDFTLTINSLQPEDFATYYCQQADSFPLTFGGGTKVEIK"
  unit: "fold"
  fold affinity vs original: 0.06
- binder: "C5A (XPA23) VH M57F (antibody, V domains shown) VH: EVQLLESGGGLVQPGGSLRLSCAASGFTFSKYFMFWVRQAPGKGLEWVSVISPSGGFTRYADSVKGRFTISRDNSKNTLYLQMNSLRAEDTAVYYCARVGYGGNSDYWGQGTLVTVSS VL: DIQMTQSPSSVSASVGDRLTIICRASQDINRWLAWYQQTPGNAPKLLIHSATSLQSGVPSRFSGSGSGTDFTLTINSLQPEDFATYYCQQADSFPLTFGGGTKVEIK"
  unit: "fold"
  fold affinity vs original: 1.03
- binder: "C5A (XPA23) VH F33Y (antibody, V domains shown) VH: EVQLLESGGGLVQPGGSLRLSCAASGFTFSKYYMFWVRQAPGKGLEWVSVISPSGGMTRYADSVKGRFTISRDNSKNTLYLQMNSLRAEDTAVYYCARVGYGGNSDYWGQGTLVTVSS VL: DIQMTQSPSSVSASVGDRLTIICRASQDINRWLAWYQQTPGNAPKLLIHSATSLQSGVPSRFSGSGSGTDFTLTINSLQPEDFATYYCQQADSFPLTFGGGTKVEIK"
  unit: "fold"
  fold affinity vs original: 0.77
